Assay protocol: NFAT Signaling Pathway (AID 444);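 further: carbachol stimulus at about its EC50 of 1 µM final; on the % scale 0 is the no-effect control and ±100 the full control effect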
Run conditions: Jurkat NFAT-bla M1, carbachol, beta-lactamase ratio, 5 h; at 17.2 µM (top of the series) unless noted
Results filed as inconclusive are left out. Activity calls are given as the source filed them. The call rests on the fitted dose curve; in most records, active means well fitted curve in either direction with a large enough effect (not every such curve was filed as active); inconclusive means small, poorly fitted or top-dose-only effect, or another doubt; inactive means flat fitted curve, though single readings scatter.
Measure: activity change, negative = inhibition

See these solved cases before continuing.
Molecule | activity change, negative = inhibition
CC(=O)Nn1cnc2c(c1=O)C1(CCCC1)Cc1ccccc1-2 | -0.355% (inactive)
CCCOc1ccc(/C(O)=C2/C(=O)C(=O)N(CCCn3ccnc3)C2c2cccs2)cc1 (stereo not drawn) | 2.88% (inactive)
COC(=O)c1ccc(Cn2c(O)c(N=O)c3ccccc32)o1 | 18.3% (inactive)
COc1ccc(NC(=O)C2CSC3c4ccccc4C(=O)N23)cc1 (stereo not drawn) | -13% (inactive)
COc1cc(C2C3C(=O)N(c4ccc(F)cc4)C(=O)C3ON2c2ccccc2)ccc1O (stereo not drawn) | 0.386% (inactive)

# map each molecule to its activity change, negative = inhibition
1. CC(=O)C1(C)OC(N)=C(C#N)C(c2ccccc2)C1(C#N)C#N (stereo not drawn)
2. CCOc1ccc(Br)cc1CC(=O)O
3. Cn1c[n+](C)cc1/C=N/O

Reply:
["-28.6% (inactive)", "-5.28% (inactive)", "4.23% (inactive)"]

###

Assay protocol: AP1 Signaling Pathway (AID 357);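 further: ME-180 reporter cells stimulated with EGF at its EC50 level; on the % scale 0 is the no-effect control and ±100 the full control effect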
Run conditions: ME-180 AP-1-bla reporter, EGF-induced, beta-lactamase ratio, 5 h; at 17.2 µM (top of the series) unless noted
Records with an inconclusive call do not appear.
Measure: activity change, negative = inhibition (%)
Numbers only, in %.

See these solved cases before continuing.
Compound | Units label | activity change, negative = inhibition
C=CCSc1nnc2n(-c3ccccc3OC)c(=O)c3c4c(sc3n12)CCC4 | % | 7
CCc1cc2c(=O)c(-c3cscn3)coc2cc1O | % | -3.15

# map each compound to its activity change, negative = inhibition
1. N#CC1=C(N)N2C(=C(C#N)C1c1ccccc1)Sc1ccccc12 (stereo not drawn)
2. COc1ccc(OC)c(NC(=O)CSc2nnc(-c3ccco3)n2-c2ccc(C(=O)O)cc2)c1
3. CC(=O)Oc1ccc2c(C)cc(=O)[nH]c2c1
4. CC(=O)C1=C(O)C(=O)N(c2cccc(C(=O)O)c2)C1c1ccccc1F (stereo not drawn)
5. COc1ccc(N(CN2C(=O)C3C4C=CC(C4)C3C2=O)C(=O)c2ccco2)cc1 (stereo not drawn)
6. Cc1cc(C)nc(NC2=NCC(=O)N2c2ccc(Cl)cc2)n1

Reply:
1: 17.5; 2: -4.17; 3: 8.38; 4: -4.91; 5: -8.5; 6: 0.0978

# map each compound to its activity change, negative = inhibition
1. CCOC(=O)c1c(SC)nc(SC)c2c1CCC2
2. CCOC(=O)c1[nH]c2ccccc2c1NC(=O)CCN1CCN(C(=O)OCC)CC1

Reply:
1. -12.6
2. -2.19

###

Assay protocol: Stat Signaling Pathway (AID 446);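 further: ME-180 cervical cancer cells given 40 pM IL-6 alongside compound; SIE-controlled beta-lactamase reporter measured as 460/530 nm FRET emission ratio; on the % scale 0 is the no-effect control and ±100 the full control effect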
Run conditions: ME-180 (cervical carcinoma) SIE beta-lactamase reporter, IL-6 stimulated, 5 h; at 17.2 µM (top of the series) unless noted
Inconclusive results are not listed.
Measure: activity, negative = inhibition (%)
Numbers only, in %.

See these solved cases before continuing.
Molecule | Measure | Units label | Result
Cc1ccc(S(=O)(=O)N(CC(O)CN2CCOCC2)c2cc(Cl)ccc2Cl)cc1 (centres undefined) | activity, negative = inhibition | % | -1.96
Cc1nc2c(c(=O)n1CC1CCCO1)c1nc3ccccc3nc1n2CC(C)C (centres undefined) | activity, negative = inhibition | % | 8.26

# map each molecule to its activity, negative = inhibition
1. CC1(C)Cc2c(sc3c4nnnn4c4nnnn4c23)CO1
2. CCOC(=O)CC(C#N)c1cn(C)c2ccccc12 (centres undefined)
3. C=CCOC(=O)C1=C(C)NC(SCC(=O)N(CC)CC)=C(C#N)C1c1ccccc1 (centres undefined)
4. CCOC(=O)c1oc2cc(O)cc(C)c2c(=O)c1-c1cscn1
5. NC(=O)C(c1ccccc1)C1CCCC1 (centres undefined)

Reply:
[-26.4, 3.49, -2.74, -0.432, 15.2]

# map each molecule to its activity, negative = inhibition
1. Nc1ccc2ncccc2c1N
2. COc1cc([C@@H]2[C@H]3CNCC=C3C(C#N)=C(N)C2(C#N)C#N)ccc1OC(C)C
3. CCN1CCc2c(C#N)c(N3CCOCC3)nc(NCc3ccccc3)c2C1
4. CCOC(=O)c1c(-c2cccs2)csc1NC(=O)CCCC(=O)O
5. COc1ccc2c(=O)c(-c3nc(C)cs3)coc2c1
6. O=C(Nc1ccccc1C(=O)NCCCn1ccnc1)c1ccccc1
7. Oc1ccc2ccccc2c1C=NC12CN3CCN(CN(C3)C1)C2
8. O=C(Nc1cccnc1)c1cccnc1

Reply:
1: -11.2; 2: 10.8; 3: 1.47; 4: -0.962; 5: 12.4; 6: 3.12; 7: -13.6; 8: 4.68

# map each molecule to its activity, negative = inhibition
1. O=C(O)CC(C(=O)OCC1CCCO1)N1CCOCC1 (centres undefined)
2. C1CCCN(CCCCN2CCCCCC2)CC1
3. C[C@]12CC[C@@H]3c4ccc(O[C@@H]5O[C@H](C(=O)O)[C@@H](O)[C@H](O)[C@H]5O)cc4CC[C@H]3[C@@H]1C[C@@H](O)[C@@H]2O
4. COc1cccc(NC(=O)CC2SC(=Nc3ccccc3)NC2=O)c1 (centres undefined)
5. O=C(CSc1nnc(-c2ccccc2)c(-c2ccccc2)n1)N1CCOCC1
6. Cc1cc(C)nc(NC(=O)c2ccc(OC(C)C)cc2)n1
7. Cc1cc(OCC(=O)Nn2cnnc2)ccc1Br
8. Cc1cc(=O)oc(C)c1C(=O)NCC1CCCO1 (centres undefined)

Reply:
1. -0.575
2. 16
3. 11.5
4. -17.8
5. 8.97
6. -7.33
7. 4.67
8. 1.38

Task item: Form field: reported activity, negative = inhibition of C(=N\n1cnnc1)/c1cccc(Oc2ccccc2)c1
Reply: -17.8
